Data credit: PubChem BioAssay (NCI)

# Test system: IGROV1 ovarian
# Assay remarks: NCI tumour cell line growth inhibition, 48 h; in the data active = GI50 below about 0.43 µM; inactive = the rest
Respond only with the outcome that fits, drawn from y for active, n for inactive

Which outcome was entered for the compound CCCc1nc2c(C)cc(-c3nc4ccccc4n3C)cc2n1Cc1ccc(-c2ccccc2C(=O)O)cc1 in this test?
n

Param item: COc1ccccc1CNCCCN1C(=O)c2ccc3c4c(ccc(c24)C1=O)C(=O)N(CCCNCCCN)C3=O
y

Param item: Cc1[nH]c(=O)[nH]c(=O)c1CO
n

###

# Test system: BT-549 breast
# Assay remarks: NCI tumour cell line growth inhibition, 48 h
Assay endpoint: TGI

Any idea what TGI came out for CCOC(=O)CCC(NC(=O)c1ccc(Nc2nc3ccccc3nc2-c2cccs2)cc1)C(=O)OCC (stereo not given) on BT-549 breast?
> 100 µM

Param item: O=C(/C=C/c1ccco1)CC(=O)/C=C/c1ccco1
55.4 µM

Param item: CCOC(=O)c1sc(=S)c2c(C(=O)OCC)c(C(=O)OCC)sc2c1C(=O)OCC
45.4 µM

Param item: CCOC(=O)c1[nH]c2ccccc2c1C(=O)C[C@H](NC(=O)C(F)(F)F)C(=O)OC
> 100 µM

Param item: COC1=CC(c2ccc[nH]2)=N/C1=C\c1ccc[nH]1
5.71 µM

Param item: CSc1nc2sc3cc(Cl)ccc3n2c(=N)c1C#N
> 100 µM

Param item: O=[N+]([O-])O.[Ga]
> 4640 µM

Param item: CC1CCC2C(C(=O)O[C@H]3C4CCO[C@@H](OC5OC(CO)C(O)C(O)C5O)C4[C@@]4(CO)O[C@@H]34)=CO[C@@H](OC3OC(CO)C(O)C(O)C3O)C12 (stereo not given in full)
> 10 µM

Param item: O=C(NC1=NC2C=CC([N+](=O)[O-])=CC2S1)C(=O)Nn1c(=S)[nH]c2ccccc2c1=O (stereo not given)
> 100 µM

Param item: NCCC(O)(P(=O)(O)O)P(=O)(O)O
> 100 µM

Param item: COC(=O)CCC/C=C\C[C@H]1C=CC(=O)/C1=C/C[C@@H](O)C/C=C\CC(F)(F)F
5.37 µM

Param item: NCCNC(=S)S
> 100 µM

Param item: O=c1oc2ccc3ccccc3c2cc1-c1nc2ccccc2o1
> 61.4 µM

Param item: Cc1cc(C)c2c(=O)n(CN3CCC(O)(c4ccccc4)CC3)sc2n1
> 100 µM

Param item: COc1ccc([N+](=O)[O-])c(S(=O)(=O)c2ccc(Cl)cc2)n1
8.97 µM

Param item: CC(=O)OCC1OC(n2c(N)c(C#N)c(-c3ccc(C)cc3)c(C#N)c2=S)C(OC(C)=O)C(OC(C)=O)C1OC(C)=O (stereo not given)
> 100 µM

Param item: S=C(S)N1CCN(c2ccc(Cl)c(Cl)c2)CC1
> 100 µM

Param item: CC(=O)Oc1ccccc1C(=O)O
> 100 µM

Param item: CCOC(=O)[C@@]12CCC(C1=O)[C@](C)(O)C[C@@H]2c1ccccc1
> 100 µM

Param item: COc1ccc(-c2nc(-c3nc4ccc(OC)cc4[nH]3)cc3c2[nH]c2ccccc23)cc1
> 100 µM

###

Answer each item with its documented TGI.
# Tested on: ACHN renal
# Assay remarks: NCI tumour cell line growth inhibition, 48 h
Output spec: scalar in µM, unitless text.

Any idea what TGI came out for COc1ccc2c(c1)N=C1CSC(c3cc([N+](=O)[O-])ccc3Cl)N1C2 (stereo not given) on ACHN renal?
54.1

Param item: CC(C)NC(=O)OCc1c(COC(=O)NC(C)C)n(C)c2c1ccc1ccccc12
2.82

Param item: NS(=O)(=O)c1ccc(N2N=C3c4ccccc4CC3C2c2ccc(Cl)cc2)cc1 (stereo not given)
31.6

Param item: COC(=O)C(Cl)=C1CC1
49.2

###

# Test system: DU-145 prostate
# Assay remarks: NCI tumour cell line growth inhibition, 48 h
Where a SMILES comes first, the peptide text is derived from it. [ ]: non-standard residue; d: D form. β3hI = CC[CH](C)[CH](N)CC(=O)O
Answer each item with its documented TGI.

Returns the measured TGI for the input compound. Input: Cc1[nH]c(=O)nc(NCCNCCO)c1C(=O)Nc1c2ccccc2nc2ccccc12
> 100 µM

Param item: COc1ccccc1Cn1nc(OC)c2cc([N+](=O)[O-])ccc21
> 100 µM

Param item: CCOP(=O)(C=C=C(C)C)OCC
> 100 µM

Param item: O=C(Cc1ccc(Cl)c(Cl)c1)N(CCc1ccc(Cl)c(Cl)c1)CCN1CCCC1
4.59 µM

Param item: O=[N+]([O-])O.[Ga]
> 10000 µM

Param item: Cc1c2c(n(Cc3ccccn3)c1C)NN=C(C#N)S2(=O)=O
> 100 µM

Param item: COC(=O)C1(Cc2ccccc2)Cc2ccc3c(c2C1=O)CCC3 (stereo unspecified)
> 100 µM

Param item: CCC(C)C(CC(=O)N1CCCC1C(=O)NC(C(=O)NC(C(=O)NCC(=O)NC(CC(N)=O)C(=O)NC(C(=O)NC(C(=O)NC(CCCCN)C(N)=O)C(C)CC)C(C)CC)C(C)C)C(C)CC)NC(=O)C(N)C(C)CC (stereo not drawn) (H-I[β3hI]PIVGNIIK-NH2; configuration not given here)
> 50 µM

Param item: O=C1CC2(CCNCC2)C(=O)N1N1CCCC1
> 100 µM

Param item: O=[N+]([O-])c1cc(-[n+]2cc([O-])on2)ccc1F
25.4 µM

Param item: COC(=O)C(Cc1ccccc1)OC(=O)C(N)CC(=O)O (stereo unspecified)
> 100 µM

Param item: C[C@@]12CCC(=O)C=C1CC[C@H]1C2=CC[C@]2(C)C1CC[C@@]2(C)O (stereo partly specified)
> 100 µM

Param item: CC(C)NC(=O)OCc1c(COC(=O)NC(C)C)n(C)c2c1ccc1ccccc12
14.4 µM

Param item: O=c1oc2ccc3ccccc3c2cc1-c1nc2ccccc2o1
> 52.3 µM

Param item: CC(=O)N=c1ccc2nc3c(cc(N)c4ccccc43)oc-2c1
3.03 µM

Param item: CC(=O)Oc1ccccc1C(=O)O
> 100 µM

Param item: O=C(NCCO)Nc1c(C(F)(F)F)cc(-c2ccccc2)[nH]c1=O
> 100 µM

Param item: N/N=C1/CCCc2nonc21
> 100 µM

Param item: COc1cccc(/C=C2\CCCCCC2=O)c1
> 100 µM

Param item: C=C(C)[C@@H]1CC[C@]2(C)[C@H](CC[C@@H]3[C@H]4[C@H]5OC[C@@]4(CCC5(C)C)CC[C@]32C)[C@@]1(C)CCCN
3.36 µM

Param item: COc1cc(-c2cc(-c3nc4ccc(Cl)cc4[nH]3)[nH]n2)cc(OC)c1OC
13.4 µM

###

Answer each item with its documented TGI.
# System: A498 renal
# Assay remarks: NCI tumour cell line growth inhibition, 48 h

Returns the measured TGI for the input compound. Input: COC(=O)C1=C(C(=O)OC)C23C=C(C)C1C2=C(C)C1(CC1)[C@@](C)(O)C3=O (stereo partly specified)
0.49 µM

Param item: O=[N+]([O-])c1cc(Cl)cc2cc(Cl)cnc12
> 100 µM

Param item: Cc1cccc(-c2cc(=S)c3cc(N4CCCC4)ccc3[nH]2)c1
> 100 µM

Param item: COc1ccccc1Cn1nc(OC)c2cc([N+](=O)[O-])ccc21
60.3 µM

Param item: C=C1c2nc3ccccc3n2C=C(c2ccccc2)N1c1ccccc1
> 100 µM

Param item: Cc1[nH]c(=O)nc(NCCNCCO)c1C(=O)Nc1c2ccccc2nc2ccccc12
> 100 µM

###

Answer each item with its documented log10(TGI).
# Test system: HL-60(TB) leukemia
# Assay remarks: NCI tumour cell line growth inhibition, 48 h
Values are log10 of TGI in µM.

Returns the measured log10(TGI) for the input molecule. Input: COc1ccc(NC(=O)c2sc3nc(C)c(C(O)c4ccccc4)cc3c2N)cc1 (centres undefined)
1.01

Param item: Cn1cc(C2=C(c3cn(CCN)c4ccccc34)C(=O)NC2=O)c2ccccc21
1.17

Param item: COc1ccccc1CNCCCN1C(=O)c2ccc3c4c(ccc(c24)C1=O)C(=O)N(CCCNCCCN)C3=O
0.44

Param item: CC(C)NC(=O)OCCN=C1c2ccccc2CCc2ccccc21
1.66

Param item: Cn1c(-c2ccc(/C=N\N3CCN(/N=C/c4ccc(-c5c[n+]6ccsc6n5C)cc4)CC3)cc2)c[n+]2ccsc12
1.68

###

# Test system: SW-620 colon
# Assay remarks: NCI tumour cell line growth inhibition, 48 h; in the data active = GI50 below about 0.43 µM; inactive = the rest
Respond only with the outcome that fits, drawn from active, inactive

Which outcome was entered for the compound CCC(=C/[C@H](C)C/C=C/C(C)=C/[C@@H](C)C(=O)[C@@H](C)[C@H](O)[C@@H](C)CC)/C=C/[C@H]1OC(=O)C=C[C@H]1C in this test?
active

Param item: N#Cc1ccnc(N2C(=O)CC[C@H]2C(=O)N(c2cncc(F)c2)[C@H](C(=O)NC2CC(F)(F)C2)c2ccccc2Cl)c1
inactive

Param item: CCCCCCCC[N+](C)(CCCCCCCC)CCCCCCCC
active

Param item: N.N.NCCCCN.O=C([O-])C1(C(=O)[O-])CCC1.O=C([O-])C1(C(=O)[O-])CCC1.[Pt+4].[Pt+4]
inactive
